assay: Toxicity liver stage against HepG2, at 10uM; format: cell-based; design: test concentration 10 uM, cell line HepG2-A16-CD81EGFP; conditions: human, HepG2-A16-CD81EGFP cells; read-out: INHIBITION

{"compound": "CCOCCN1CCN(CC(O)c2ccc(C)c(C)c2)CC1 (stereo unspecified)", "cytotoxicity at 10 µM [%]": -6.33}
{"compound": "O=C(CSc1nnc(N2CCCC2)s1)NC(=O)Nc1ccccc1", "cytotoxicity at 10 µM [%]": 3.59}
{"compound": "CCC1CNCc2cc3c(OC)ccc(OC)c3nc2O1 (stereo unspecified)", "cytotoxicity at 10 µM [%]": -4.22}
{"compound": "CS(=O)(=O)N1C[C@@H]2CCN(C(=O)c3ccco3)[C@@H]2C1", "cytotoxicity at 10 µM [%]": 10}
{"compound": "Cc1cc(C(=O)N2CCN(c3nc4ccccc4s3)CC2)no1", "cytotoxicity at 10 µM [%]": -110}
{"compound": "CCn1cnnc1C1CCN(C(=O)c2ccc3cc[nH]c3c2)CC1", "cytotoxicity at 10 µM [%]": 5.16}
{"compound": "Cc1cnccc1CN(C)C(=O)C(C)(C)NC(=O)c1cccs1", "cytotoxicity at 10 µM [%]": 6.89}
{"compound": "COc1ccccc1CNC(=O)c1ccccc1-n1cnc(CN)c1", "cytotoxicity at 10 µM [%]": -10.6}
{"compound": "COCCN(C)C(C)c1cccc(S(N)(=O)=O)c1 (stereo unspecified)", "cytotoxicity at 10 µM [%]": -28}
{"compound": "O=C(NC1CCCC1)c1cc(C2CCCNC2)n[nH]1 (stereo unspecified)", "cytotoxicity at 10 µM [%]": 5.27}
{"compound": "Cn1nc(C(=O)N2CCC(Oc3ccc(C#N)cn3)CC2)ccc1=O", "cytotoxicity at 10 µM [%]": -3.33}
{"compound": "CCOc1cccc(CNC(C)c2ccc(-n3ccnc3)cc2)c1O (stereo unspecified)", "cytotoxicity at 10 µM [%]": -38.3}
{"compound": "CC(=O)N1CCC2(CCN(C(=O)c3ccc(F)c(C(F)(F)F)c3)CC2)C1", "cytotoxicity at 10 µM [%]": -80.4}
{"compound": "CN(C)c1ccc2c(c1)CN(C(=O)c1c[nH]cn1)C2c1cnco1 (stereo unspecified)", "cytotoxicity at 10 µM [%]": -0.234}
{"compound": "CCc1nn(C)c(Cl)c1CN1C[C@H](NC(=O)CCO)[C@@H](C(C)C)C1", "cytotoxicity at 10 µM [%]": 11.1}
{"compound": "O=C(CN1CCC(c2cc(=O)n3c(n2)CCCCC3)C1)N1CCCCC1 (stereo unspecified)", "cytotoxicity at 10 µM [%]": -22.8}
{"compound": "Cc1ccc2c(c1)C(=O)NCC1(CCN(C(=O)c3ccnn3C)CC1)O2", "cytotoxicity at 10 µM [%]": -16.6}
{"compound": "Cc1csc(C2CCCCN2C(=O)c2cc(C(C)C)[nH]n2)n1 (stereo unspecified)", "cytotoxicity at 10 µM [%]": -1.59}
{"compound": "Cc1nnc2n1CCN(C(=O)c1cnc3c(cnn3C(C)C)c1)C2", "cytotoxicity at 10 µM [%]": -6.69}
{"compound": "CCCN(C)CC1CCN(c2ccc(Br)c(C)n2)C1 (stereo unspecified)", "cytotoxicity at 10 µM [%]": 14.8}
{"compound": "COCCN1C[C@H]2CN(C(=O)NC(C)C)CCN2C1=O", "cytotoxicity at 10 µM [%]": 2.6}
{"compound": "CCCC(=O)NC(Cc1ccc(C)cc1)c1ccccn1 (stereo unspecified)", "cytotoxicity at 10 µM [%]": -2.25}
{"compound": "COCCOCC(=O)N1CCC(c2ccccc2F)C1 (stereo unspecified)", "cytotoxicity at 10 µM [%]": -6.45}
{"compound": "COc1cc(C)nc(N2CCN(C(=O)CNC(C)(C)C)CC2)n1", "cytotoxicity at 10 µM [%]": -7.67}
{"compound": "Cc1ncccc1OC1(C(=O)NCCCN2CCOCC2)CCNCC1", "cytotoxicity at 10 µM [%]": -10.8}
{"compound": "Cc1nn(C)cc1S(=O)(=O)N[C@@H]1CC[C@@H](n2ccnc2C)[C@@H]1O", "cytotoxicity at 10 µM [%]": -3.43}
{"compound": "CN(C)CCOCC1CN(C(=O)c2ccnnc2)Cc2ccnn2C1 (stereo unspecified)", "cytotoxicity at 10 µM [%]": 7.89}
{"compound": "O=C(NCc1cnc2n1CCN(Cc1cccs1)C2)c1ccno1", "cytotoxicity at 10 µM [%]": -110}
{"compound": "Fc1cnc(N2C[C@H]3CN(Cc4cccc(F)c4)C[C@H]3C2)nc1", "cytotoxicity at 10 µM [%]": 10.4}
{"compound": "CCN(C(=O)c1cc(C)oc1C)C1CC1", "cytotoxicity at 10 µM [%]": -5.89}
{"compound": "CC(=O)N1CCCN(Cc2csc(C)n2)c2ccccc21", "cytotoxicity at 10 µM [%]": 0.00333}
{"compound": "COc1ccc(-c2noc(Cn3cc4c(n3)CCC4)n2)c(OC)c1OC", "cytotoxicity at 10 µM [%]": 4.7}
{"compound": "CC(C)(C)OC(=O)N1CCN(C(=O)c2sccc2C2CC2)CC1", "cytotoxicity at 10 µM [%]": 2.38}
{"compound": "Cc1nc(O)ccc1C(=O)NCc1ncccc1F", "cytotoxicity at 10 µM [%]": 7.97}
{"compound": "CS(=O)(=O)N1CC[C@@H]2O[C@@H](COCC(=O)N3CCCC3)CC[C@@H]21", "cytotoxicity at 10 µM [%]": -0.879}
{"compound": "Cc1n[nH]c(CN2CCN(Cc3ccccc3)[C@@H]3CS(=O)(=O)C[C@@H]32)n1", "cytotoxicity at 10 µM [%]": -7.42}
{"compound": "Cc1ccc(C(=O)N2C[C@@H](OCC3CCOCC3)[C@H]3OCCC[C@H]32)o1", "cytotoxicity at 10 µM [%]": -3.55}
{"compound": "CCCC(O)CN1CC(C)(C)CN(C(=O)c2ccc(Cl)cc2)CC1=O (stereo unspecified)", "cytotoxicity at 10 µM [%]": 2.78}
{"compound": "CC(=O)Nc1ccc2nc(CN(C)Cc3snnc3C)ccc2c1", "cytotoxicity at 10 µM [%]": -12.8}
{"compound": "C=C(C)COc1ccc(C(CC(=O)OC)c2oc(C)cc(=O)c2O)cc1 (stereo unspecified)", "cytotoxicity at 10 µM [%]": -9.24}
{"compound": "CC(C)c1cc(NC(=O)c2ccncc2)[nH]n1", "cytotoxicity at 10 µM [%]": -0.396}
{"compound": "CSCc1cc(F)ccc1CNCc1cccnc1", "cytotoxicity at 10 µM [%]": -9.84}
{"compound": "O=C(C1CCOCC1)N1C[C@H]2CCC[C@@]2(COc2ccccn2)C1", "cytotoxicity at 10 µM [%]": -0.587}
{"compound": "c1cc(CNCc2ccnc(N3CCCCC3)c2)c2c(c1)OCCCO2", "cytotoxicity at 10 µM [%]": 21.4}
{"compound": "COc1ccccc1CC(=O)N1CCC(NCc2c[nH]nc2C)CC1", "cytotoxicity at 10 µM [%]": -13.5}
{"compound": "Clc1cc(CN2CCCN3CCCC3C2)c2ncccc2c1 (stereo unspecified)", "cytotoxicity at 10 µM [%]": 19.5}

---

Form field: cytotoxicity at 10 µM (one value per entry).
assay: Toxicity liver stage against HepG2, at 10uM; assay type: cell-based; parameters: test concentration 10 uM, cell line HepG2-A16-CD81EGFP; details: human, HepG2-A16-CD81EGFP cells; read-out: INHIBITION
recorded endpoint: cytotoxicity at 10 µM

{"compound": "Cc1noc(NC(=O)c2ccc(F)cc2)n1", "observed result": "-0.481%"}
{"compound": "Cc1nc(CC(=O)N(CCN2CCOCC2)Cc2ccco2)c(C)s1", "observed result": "-3.71%"}
{"compound": "Cn1ncnc1NCc1ccc(Br)cc1", "observed result": "-11.9%"}
{"compound": "Cc1ccccc1-c1noc(CN2CCC(c3ccn[nH]3)CC2)n1", "observed result": "1.98%"}
{"compound": "CN1Cc2cc(F)ccc2N(CC(O)C(F)(F)F)CCC1=O (stereo not drawn)", "observed result": "1.06%"}
{"compound": "Cc1ccccc1-n1cc(-c2ccnc(N[C@@H](CO)C(C)C)n2)cn1", "observed result": "-3.39%"}
{"compound": "Cc1nc(CCNC(=O)NC2CCN(c3ncccn3)CC2)cs1", "observed result": "-11.8%"}
{"compound": "O=C(O)C1CCN(c2ccc(Sc3ccc(Br)cc3)nn2)CC1", "observed result": "9.14%"}
{"compound": "CCc1nc2ccccc2c(=O)n1CC1(O)CCNCC1", "observed result": "-15.3%"}
{"compound": "Cc1ccc(NC(=O)NCC2(N3CCOCC3)CCSC2)c(C)c1 (stereo not drawn)", "observed result": "1.15%"}
{"compound": "c1cncc(-c2noc(CNCC3CCCN3c3cccnn3)n2)c1 (stereo not drawn)", "observed result": "-4.6%"}
{"compound": "Cn1ccc2ccc(C(=O)N3CC[C@@]4(O)CCCC[C@H]4C3)cc21", "observed result": "-46.6%"}
{"compound": "N#CCCN(Cc1cccnc1)C(=O)c1ccn(-c2ccccc2)n1", "observed result": "13.9%"}
{"compound": "CC(C)(C)C(=O)N1CCC(COCc2ccccc2)C1 (stereo not drawn)", "observed result": "12.8%"}
{"compound": "CS(=O)(=O)Nc1ccc([C@H]2OCC(=O)N[C@@H]2CO)cc1", "observed result": "-5.4%"}
{"compound": "Cc1cnc(N2CCC(OCCN3CCCCC3)C2)nc1C (stereo not drawn)", "observed result": "-43.9%"}
{"compound": "CC(C)N1CCC(Nc2ccn(CCC#N)n2)C1=O (stereo not drawn)", "observed result": "15.7%"}
{"compound": "CCN(Cc1cccc(F)c1)Cn1nc(C)c2c(C)onc2c1=O", "observed result": "-3.54%"}
{"compound": "Cc1ccnn1CCC(=O)N1CCOC(CCc2ccccc2)C1 (stereo not drawn)", "observed result": "-51.1%"}
{"compound": "Cn1c(C2CC2)nc2c1CCN(CCOc1ccc(C#N)cc1)C2", "observed result": "-9.39%"}
{"compound": "Cc1nn(C)c2nc(N3CCC(C(O)Cc4ccccc4)CC3)sc12 (stereo not drawn)", "observed result": "28.2%"}
{"compound": "CCc1noc(C)c1C(=O)N1CCC2(CCCN(CC(C)(C)C)C2=O)C1 (stereo not drawn)", "observed result": "3.75%"}
{"compound": "COCCN1CCC(CNC(=O)C2(S(C)(=O)=O)CCCC2)CC1", "observed result": "-9.61%"}
{"compound": "Fc1ccc(OCC2CCCO2)c(NCc2cn3cccnc3n2)c1 (stereo not drawn)", "observed result": "-6.31%"}
{"compound": "CN1CCN(C(=O)c2ccc(=O)n(C)c2)c2ccccc21", "observed result": "-11.5%"}
{"compound": "O=S(=O)(C1CC1)N1CCc2ncc(Cn3cncn3)n2CC1", "observed result": "3.62%"}
{"compound": "Fc1cnc(N2CCCn3cnc(COc4cccnc4)c3C2)nc1", "observed result": "1.42%"}
{"compound": "CCC[C@H]1CN(C(=O)c2cc(-c3cccs3)n(C)n2)C[C@@H]1N", "observed result": "-1.02%"}
{"compound": "COc1cccc(N2CCN(CCC(=O)NC3CCCCC3)CC2)c1", "observed result": "-5.64%"}
{"compound": "CC(C)NC(=O)C1CN(C(=O)N2CCCC2)CC12CCOCC2 (stereo not drawn)", "observed result": "1.08%"}
{"compound": "c1nc(NCC2(N3CCOCC3)CCSC2)c2sccc2n1 (stereo not drawn)", "observed result": "59.7%"}
{"compound": "CNC(=O)C1(C)CN(S(=O)(=O)c2cccc(OC)c2)CCO1 (stereo not drawn)", "observed result": "-1.43%"}
{"compound": "O=C(N1CCOCC1)N1C[C@H]2CN(Cc3nccs3)C[C@H]2C1", "observed result": "-80.8%"}
{"compound": "C=c1ncsc1=C1NN=C(C2CCCN2C(=O)c2ccn(CC)n2)O1 (stereo not drawn)", "observed result": "-7.82%"}
{"compound": "CC(C)c1noc(CN2CCN(C(=O)c3cccc(F)c3)CC2)n1", "observed result": "-4.27%"}
{"compound": "CC1CN(CC(=O)N2CCCC2)CCN1c1ccc2nncn2n1 (stereo not drawn)", "observed result": "-5.46%"}
{"compound": "Cn1nccc1-c1ccc2nc(C3CCN(CCO)CC3)nn2c1", "observed result": "-14.1%"}
{"compound": "CC(=O)N1CCCC1c1nccc(C)n1 (stereo not drawn)", "observed result": "1.31%"}
{"compound": "Cc1ccccc1C(C(=O)NCCSC(F)(F)F)N(C)C (stereo not drawn)", "observed result": "8.25%"}
{"compound": "COc1ccc(-c2n[nH]cc2CN(C)Cc2nccn2C)c(F)c1", "observed result": "-2.77%"}
{"compound": "Cc1cc(NC(=O)NCCc2ccsc2)n(C)n1", "observed result": "12.3%"}
{"compound": "CC(C)N1CCN(C(=O)C(C)n2cncn2)CC1 (stereo not drawn)", "observed result": "0.724%"}
{"compound": "Cc1nc(CN2Cc3nccn3CC(COCC3CC3)C2)cs1 (stereo not drawn)", "observed result": "11.3%"}
{"compound": "CS(=O)(=O)NCCCN1CCCCC1c1cc2ccccc2[nH]1 (stereo not drawn)", "observed result": "-10.6%"}
{"compound": "Cc1nn(C)cc1CN1CCc2nc3sccc3c(=O)n2CC1", "observed result": "-1.87%"}
{"compound": "O=C(NCc1ccoc1)Nc1cc(C(F)(F)F)c[nH]c1=O", "observed result": "-0.779%"}
{"compound": "Cc1noc(C)c1C(C)NC(=O)N1CCC(NC(=O)c2ccsc2)CC1 (stereo not drawn)", "observed result": "7.07%"}
{"compound": "CCS(=O)(=O)N1CCN(CC(F)(F)F)CC1", "observed result": "-1.99%"}
